Every entry's value here was drawn from ChEMBL document CHEMBL1144223.

- Target Under Test: Histamine H1 receptor (Cavia porcellus, UniProt P31389)
- Sequence (P31389 whole entry): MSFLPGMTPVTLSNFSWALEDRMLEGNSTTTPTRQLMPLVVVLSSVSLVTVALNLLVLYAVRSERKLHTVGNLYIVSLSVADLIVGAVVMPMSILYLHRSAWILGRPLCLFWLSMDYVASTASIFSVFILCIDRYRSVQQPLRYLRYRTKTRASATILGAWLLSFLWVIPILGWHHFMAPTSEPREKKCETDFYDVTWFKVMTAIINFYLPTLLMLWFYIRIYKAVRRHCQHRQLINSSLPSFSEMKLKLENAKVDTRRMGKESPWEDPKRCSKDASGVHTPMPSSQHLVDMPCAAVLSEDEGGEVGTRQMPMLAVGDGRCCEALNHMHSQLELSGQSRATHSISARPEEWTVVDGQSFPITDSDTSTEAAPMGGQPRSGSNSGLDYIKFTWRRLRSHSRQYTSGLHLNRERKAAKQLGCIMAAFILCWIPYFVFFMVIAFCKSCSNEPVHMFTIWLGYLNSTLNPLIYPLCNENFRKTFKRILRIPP
- Assay Procedure: Antagonist activity at histamine H1 receptor in guinea pig ileum assessed as inhibition of histamine-induced contractions at 5 ug/ml
- Type: functional, tissue-based
Where a name gives a salt, the structure may show the parent alone.
Endpoint Name: EC50 (nM)
Report as a plain number; the unit nM is understood.

// query Returns the measured EC50 for the input compound. Input: CN(C)CCC(c1ccccc1)c1ccccn1 (stereo unspecified) [PHENIRAMINE MALEATE]
// result 19.1

====

I'd appreciate it if you could supply Emax values for the items below.
- Target Under Test: UniProtKB P31389
- Assay Procedure: Antagonist activity at histamine H1 receptor in guinea pig ileum assessed as inhibition of histamine-induced contractions at 1.0 mg/ml relative to control
- Format: functional, tissue-based
Please state the figure in %; there is no need to write the unit.

// query Returns the measured Emax for the input compound. Input: O=c1cc(-c2ccccc2)c2ccc(OCC(O)CN3CCOCC3)cc2o1 (configuration not stated)
// result 58

// query Item: CCN(CC)CC(O)COc1ccc2oc(=O)cc(C)c2c1 (configuration not stated)
// result 58

// query Okay, and Cc1cc(=O)oc2ccc(OCC(O)CN3CCCCC3)cc12 (configuration not stated) ?
// result 55

// query Follow-up entry: CCN(CC)CC(O)COc1ccc2c(-c3ccccc3)cc(=O)oc2c1 (configuration not stated)
// result 60

// query Also COc1ccccc1N1CCN(CC(O)COc2ccc3oc(=O)cc(C)c3c2)CC1 (configuration not stated) , if possible.
// result 58

// query What would you report for O=c1cc(-c2ccccc2)c2ccc(OCC(O)CN3CCN(c4ccccc4)CC3)cc2o1 (configuration not stated) ?
// result 54

// query Check COc1ccccc1N1CCN(CC(O)COc2ccc3c(-c4ccccc4)cc(=O)oc3c2)CC1 (configuration not stated) too.
// result 52

// query Check Cc1cc(=O)oc2ccc(OCC(O)CN3CCN(C)CC3)cc12 (configuration not stated) too.
// result 54

// query O=c1cc(-c2ccccc2)c2ccc(OCC(O)CN3CCCCC3)cc2o1 (configuration not stated) ?
// result 60

// query Now consider Cc1cc(=O)oc2ccc(OCC(O)CN3CCN(c4ccccc4)CC3)cc12 (configuration not stated) .
// result 60

// query Also check CCCNCC(O)COc1ccc2c(-c3ccccc3)cc(=O)oc2c1 (configuration not stated)
// result 53

// query Again, but for O=c1cc(-c2ccccc2)c2ccc(OCC(O)CN3CCNCC3)cc2o1 (configuration not stated)
// result 53
